assay: soluble on expression in E. coli; label from the status in PepcDB or PDB records

[
  {
    "Seq String": "GMKYKAAIFDMDGTILDTSADLTSALNYAFEQTGHRHDFTVEDIKNFFGSGVVVAVTRALAYEAGSSRESLVAFGTKDEQIPEAVTQTEVNRVLEVFKPYYADHCQIKTGPFPGILDLMKNLRQKGVKLAVVSNKPNEAVQVLVEELFPGSFDFALGEKSGIRRKPAPDMTSECVKVLGVPRDKCVYIGDSEIDIQTARNSEMDEIAVNWGFRSVPFLQKHGATVIVDTAEKLEEAILGE",
    "soluble on expression in E. coli": "soluble"
  },
  {
    "Seq String": "MAHHHHHHMELSKYAGLSSERLDCLRNLDIRKRSIYKGSTFSYGNNIYDILHNYSDKQKENKSDGVSVAHDYKDFQRNIKFAGLESEIKNDINIRNRRIKNDMNYRNDNLKDILQNNMNEQNINNSKYFLSDKGYVLTPKRCLARHVDDSEINKYFSTKYAVTDSSTGRTEIMVERKPGCSNIIVQNFSEFDAYGTYKKKDERINRRDSFVHTKMGIVPRDGSCIDNNKCKAQATFTHIHRRDNIAPDNYWLCPTIESDKKNKTKR",
    "soluble on expression in E. coli": "not soluble"
  },
  {
    "Seq String": "MGSDKIHHHHHHMTERFQQKNISVPDGIWIMKQTWNDVLFAHWPVDVSILRALVPSVLELDTYNGQAWISMLPFMLTNLRARYLPVIPGARAFPELNLRTYVTYKGKPGIYFFSLDADHRLAVLGARTFFHLPYFYADMKSEKNGDAIDYVSKRKNDKEAAFHAAYRPISAPFTAEKDSLDYWLTDDTGSTPLIAISSITKTSIIIRGCCKTPKQKFQSIR",
    "soluble on expression in E. coli": "not soluble"
  },
  {
    "Seq String": "SNAMANTSSDWAGAPQNASADGEFVRDTNYIDDRIVADVPAGSEPIAQEDGTFHWPVEAGRYRLVAARACPWAHRTVITRRLLGLENVISLGLTGPTHDVRSWTFDLDPNHLDPVLQIPRLQDAYFNRFPDYPRGITVPALVEESSKKVVTNDYPSITIDFNLEWKQFHREGAPNLYPAELREEMAPVMKRIFTEVNNGVYRTGFAGSQEAHNEAYKRLWVALDWLEDRLSTRRYLMGDHITEADIRLYPTLVRFDAVYHGHFKCGRNKITEMPNLWGYLRDLFQTPGFGDTTDFTEIKQHYYITHAEINPTRIVPVGPDLSGFATPHGREKLGGSPFAEGVTLPGPIPAGEEVKNPEPFQK",
    "soluble on expression in E. coli": "soluble"
  },
  {
    "Seq String": "MSDEISILIQDRKTGQRRNLTLNINITGNIEDLTKDVEKLTEIPSDELEVVFCGKKLSKSTIMRDLSLTPATQIMLLRPKFNSHNENGATTAKITTDSSILGSFYVWCKNCDDVKRGKLRVYCQKCSSTSVLVKSEPQNWSDVLKSKRIPAVCEECCTPGLFAEFKFKCLACNDPAAALTHVRGNWQMTECCVCDGKEKVIFDLGCNHITCQFCFRDYLLSQLERFGFVNQPPHGFTIFCPYPGCNRVVQDVHHFHIMGQTSYSEYQRKATERLIAVDDKGVTCPNVSCGQSFFWEPYDDDGRSQCPDCFFSFCRKCFERNCVCQSEDDLTRTTIDATTRRCPKCHVATERNGGCAHIHCTSCGMDWCFKCKTEWKEECQWDHWFN",
    "soluble on expression in E. coli": "not soluble"
  }
]

----------
test: soluble on expression in E. coli; label from the status in PepcDB or PDB records

[
  {
    "Seq String": "MTPILTDRPALARHRTRACRAPALFLHEEAAREVEERLSEVNRRFTAPAVVTAFPEVWRDRLPNARIVTDAEELALDPGAHDLVIHALAMHWSNDPVGQLVQSRRALRPDGLFLGLLFGGRTLSELRIALAEAEAAVTGGLSPRVLPMAEIRDLGALLQRAGFALPVADSLVREVRYRDTLHLMRDLRAMGETNALEARLRRPSRRALFAEAEARYPRRADDRIVASFEIICLTGWAPHESQQKPLRPGSAARSLAEALAAARKDGPGDG",
    "soluble on expression in E. coli": "not soluble"
  },
  {
    "Seq String": "MAHHHHHHMKEDESDEPVQKKEYEKTFWEQIGKPKHILAPMVDLSELAFRLLCRNYNCHLTFTPMLHAKNFVEHEKYRKSYFQSCEKDEPVIAQFCGNNSKIILNAIEYIKNEVNAVDLNLGCPQQIAKKGNYGAFLLQKHDEVVNLVSDITNNCNIPITCKIRKIDQDYQKTLNLCYDLQSRNVKMITVHGRTKEEKGTNIKQCDYEIIKIIKERLNIPIIANGSIEHFEDIQKCLNYTKADAVMCAEILLEKPYFFSNQNVHTVDVVNEYYDLFLQYESNTKYLKGHLFKMLYKYFQVHTDLRDMLNNCHSLDDYVNFRSILNEKRSSGVLTESSLSWYRRYRKTE",
    "soluble on expression in E. coli": "not soluble"
  },
  {
    "Seq String": "MGSDKIHHHHHHMDKAGKETPFWVQKTLAQLNAHEWEALCDRCGLCCLVKAEDEEAGDIYLTSLICPFFDLKTKVCSCYSQRKQQNPDCSTLTPMTVQTYDWLPDHCAYRLVAAGKPLPTWHPLISGRHDTVVNVMNYFKGVKIRHLQPHSDLEDYLILDPPEG",
    "soluble on expression in E. coli": "not soluble"
  },
  {
    "Seq String": "MLERIANIQKKLSKSIVERKINEVRKVAAVDVSYKEEKARAALVITTFPEGEVLKTKVIETTVSFPYIPTFFFLRETKPILIATKGETFDVLIVEGHGKAHPRGYGLASHIGVVLRKPTIGVAKRLLKNTPKDTYKKVGKVYVSVGNLITLEDATKIIRAILDESGYPKPLKLADKLSKGRIYEVKNTPSPNRSRKKRGNRGKDNNNSQGNLEHHHHHH",
    "soluble on expression in E. coli": "soluble"
  },
  {
    "Seq String": "QVQLQQSGAELMKPGASVKISCKATGYTFSSYWIAWVKQRPGHGLEWIGEILPGSGSTNYNEKFKGKATFTADTSSNTAYMQLSSLTSEDSAVYYCARSPYYYGNWDYWGQGTTLTVSSAKTTPPSVYPLAPGSAAQTNSMVTLGCLVKGYFPEPVTVTWNSGSLSSGVHTFPAVLQSDLYTLSSSVTVPSSTWPSETVTCNVAHPASSTKVDKKIVPRDC",
    "soluble on expression in E. coli": "soluble"
  },
  {
    "Seq String": "SEDDAPVIYGLEFQARALTPQTAETDAIRFLVGTQSLKYDNQIHIIDFDDENNIINKNVLLHQAGEIWHISASPADRGVLTTCYNRTSDSKVLTCAAVWRMPKELESGSHESPDDSSSTAQTLELLCHLDNTAHGNMACVVWEPMGDGKKIISLADNHILLWDLQESSSQAVLASSASLEGKGQLKFTSGRWSPHHNCTQVATANDTTLRGWDTRSMSQIYCIENAHGQLVRDLDFNPNKQYYLASCGDDCKVKFWDTRNVTEPVKTLEEHSHWVWNVRYNHSHDQLVLTGSSDSRVILSNMVSISSEPFGHLVDDDDISDQEDHRSEEKSKEPLQDNVIATYEEHEDSVYAVDWSSADPWLFASLSYDGRLVINRVPRALKYHILL",
    "soluble on expression in E. coli": "soluble"
  },
  {
    "Seq String": "MAIIKCDVCAYPFSNKQDPRCSKCHPKITPPSKPKNPYALPMKQQLILGPIVGIVVGLMFAACEGNRPGRATTACMLRARAQAIAAGNPNYTHAKEVSPTRAMLVFRKDGRTRNTNFFCDSLVTDREA",
    "soluble on expression in E. coli": "not soluble"
  },
  {
    "Seq String": "MSLELEAKLAQANEQIKELSKREERVRIARDLHDTLGHTLSLLTLKSQLIQRLAASDPERTKLEAKEMETSSRSALKQVRELVSDMRTVTITEELVNIQHILRAGNITFQYEGADDFSVISPVTQNIISMCMREAVTNIIKHSKATHCAITISQFADKMRIVIRDDGKGAPKEKMFGNGLWGMEERLMLIEGGLTVSDHNGTVVALTIPLIKKAEEGHHHHHH",
    "soluble on expression in E. coli": "soluble"
  },
  {
    "Seq String": "MATLFIADLHLCVEEPAITAGFLRFLAGEARKADALYILGDLFEAWIGDDDPNPLHRQMAAAIKAVSDSGVPCYFIHGNRDFLLGKRFARESGMTLLPEEKVLELYGRRVLIMHGDTLCTDDAGYQAFRAKVHKPWLQMLFLALPLFVRKRIAARMRANSKEANSSKSLAIMDVNQNAVVSAMEKHQVQWLIHGHTHRPAVHELIANQQPAFRVVLGAWHTEGSMVKVTADDVELIHFPFLEHHHHHH",
    "soluble on expression in E. coli": "not soluble"
  },
  {
    "Seq String": "MGSDKIHHHHHHVARLVASVDKYIYTVNGDTILSHQFISNNAQFGNGIEVSQDNHFPWSGEIHYEINNPNQLAFKLGIRIPSWSRNKFGLKINGKKIDLASEDGFIYINVNDESLTVDLSLDMNTKFMRSSNKVSSNYGKIAVQRGPIVYAAEETDNKAPLWNYKVETDKEPKYHYNKDLLEGVGTITVKSIAEEISPEDGPLYSTIDEATANYETDLKLIPYYAWANREEGQMQVWLNK",
    "soluble on expression in E. coli": "not soluble"
  },
  {
    "Seq String": "MAHHHHHHMKYNEAQMRFYLLCLNMKQANTKEDKSQKISNSSTIDEIEEEQLYTGPLKIEQLLAKGFVKRDLELLKEGGLQTVECVAYAPMRTLCAIKGISEQKAEKLKKACKELCNSGFCNAIDYHDARQNLIKFTTGSKQLDALLKGGIETGGITELFGEFRTGKSQLCHTLAITCQLPIEQSGGEGKCLWIDTEGTFRPERIVAIAKRYGLHPTDCLNNIAYAKAYNCDHQTELLIDASAMMADARFALLIVDSATALYRSEYIGRGELANRQSHLCRFLRGLQRIADIYGVAVIITNQVVAKVDAMSMFGGHEKIPIGGNIIAHASQTRLYLRKGRGESRICKIYDSPVLPEGEAVFAITEGGIADYEEK",
    "soluble on expression in E. coli": "not soluble"
  }
]
